yeast fitness values by entry
B1: tRNA (parent)
chain: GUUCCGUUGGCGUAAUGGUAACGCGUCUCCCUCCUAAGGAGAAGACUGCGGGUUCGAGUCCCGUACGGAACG

Variants of: B1
ASSAY OVERVIEW: yeast fitness relative to wild type (ratio to wild type); higher = fitter; tRNA-Arg(CCU), competitive growth, 37 C, YPD
Variants at the floor of the assay were thinned out.
ENDPOINT LABEL: yeast fitness

U3C G52A = 0.743
A14U G41A = 0.674
A65U = 0.993
C33G U35C = 0.603
C4U A15U C66U = 0.649
